Entry source: the supplement of paper PMC3545927

# targetOrTestSystem: furin, P09958;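 also: purified furin at 1:10 enzyme:substrate in 50 mM HEPES pH 7.5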
# Sequence (P09958 whole entry): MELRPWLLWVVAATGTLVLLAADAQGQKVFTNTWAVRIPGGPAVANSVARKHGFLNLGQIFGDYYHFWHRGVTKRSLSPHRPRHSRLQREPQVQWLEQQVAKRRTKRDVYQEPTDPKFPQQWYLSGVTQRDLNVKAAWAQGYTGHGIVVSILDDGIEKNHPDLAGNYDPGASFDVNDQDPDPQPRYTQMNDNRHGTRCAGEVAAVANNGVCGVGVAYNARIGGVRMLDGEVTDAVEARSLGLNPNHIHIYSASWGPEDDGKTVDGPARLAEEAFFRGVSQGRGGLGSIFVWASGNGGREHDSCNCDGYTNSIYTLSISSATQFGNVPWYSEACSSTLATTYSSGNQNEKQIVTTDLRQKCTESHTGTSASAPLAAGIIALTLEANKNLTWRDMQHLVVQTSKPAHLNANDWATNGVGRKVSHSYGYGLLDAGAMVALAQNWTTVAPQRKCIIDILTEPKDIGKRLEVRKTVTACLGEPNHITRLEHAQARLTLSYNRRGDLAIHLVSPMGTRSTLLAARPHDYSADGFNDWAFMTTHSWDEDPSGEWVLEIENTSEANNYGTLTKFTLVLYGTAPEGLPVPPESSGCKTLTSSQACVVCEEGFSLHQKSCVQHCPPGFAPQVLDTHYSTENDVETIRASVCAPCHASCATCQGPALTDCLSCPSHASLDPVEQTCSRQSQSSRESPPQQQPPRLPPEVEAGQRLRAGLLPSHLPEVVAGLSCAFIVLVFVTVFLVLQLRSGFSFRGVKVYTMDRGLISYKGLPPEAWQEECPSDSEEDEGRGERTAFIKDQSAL
# methodSummary: furin cleavage Z-score vs untreated control; higher = more cleavage, active = 3.5 or more, inactive = 1 or less, 8 variable residues between constant flanks
# conditionDetails: 7.5 min
The list shows a part of the results. The true hit rate is not given.
// furin cleavage Z-score lookup, one value per entry

# querySequence, furin cleavage Z-score
measured = [
    ("CAVVCCAMSYAGNASASA [HC101]", 1.72),
    ("CAEVVTSFWVAGNASASA [HC2207]", -0.594),
    ("CAHFLSQTKQAGNASASA [HC946]", -1.62),
    ("CAYGAGVAGAAGNASASA [HC1088]", -0.899),
    ("CAPCGIVPAKAGNASASA [HC407]", 0.926),
    ("CADKEVVTSTAGNASASA [HC2294]", -0.414),
]
